Tested on: BT-549 breast
Experiment notes: NCI-60 one-dose screen, 48 h
Protocol conditions: 10 µM unless noted
This is part of a sample that, as a whole, favours compounds with a hit. Of some 83,000 tested, about 20% had one in any assay. The source made the active and inactive calls. The calls were made as follows: active = growth percent below 10; inactive = the rest.
Possible outcomes: active, inactive

- Chemical structure: "CC1(C)C=CC[C@]2(C)[C@H]3CC[C@@H]4[C@H]5[C@H](C(=O)/C=C/c6cccnc6)CC[C@]5(CO)CC[C@@]4(C)[C@]3(C)CC[C@@H]12"
  Label class: "active"
- Chemical structure: "Cc1cccc(C)c1NC(=O)CSC(=S)N1CCN(CCOCCO)CC1"
  Label class: "inactive"
- Chemical structure: "Cn1cc(-c2csc(-c3c[nH]c4ccc(F)cc34)n2)c2cccnc21"
  Label class: "inactive"
- Chemical structure: "CC(C)=CCC/C(C)=C/CC/C(C)=C/CC/C(C)=C/CSC[C@H](NC(=O)CCCCCN1CCN(C)CC1)C(=O)NC1CCCCC1"
  Label class: "inactive"
- Chemical structure: "Nc1ccc(Cl)cn1"
  Label class: "inactive"
- Chemical structure: "Fc1ccc2[nH]cc(-c3nc(-c4c[nH]c5ncccc45)cs3)c2c1"
  Label class: "inactive"
- Chemical structure: "Cc1csc(Nc2nc(-c3ccc(Cl)cc3)nc(C(Cl)(Cl)Cl)n2)n1"
  Label class: "inactive"
- Chemical structure: "N=C(N)N=Nc1ccc(O)cc1"
  Label class: "inactive"
- Chemical structure: "O=P(O)(c1ccccc1)c1ccccc1I"
  Label class: "inactive"
- Chemical structure: "C=C(C)[C@@H]1CC[C@]2(C)CC[C@]3(C)[C@H](CC[C@@H]4[C@@]5(C)CCCNC(C)(C)[C@@H]5CC[C@]43C)[C@@H]12"
  Label class: "inactive"

----------
Test system: OVCAR-8 ovarian
Experiment notes: NCI-60 one-dose screen, 48 h
Protocol conditions: 10 µM unless noted
The panel holds about 83,000 compounds, 20% with a hit somewhere; the sample as a whole holds those more often. The source made the active and inactive calls. Rule for the calls: active = growth percent below 10; inactive = the rest.
Classes used: 1 (active), 0 (inactive)

- Chemical structure: "CC(C)(C)CC(C)(C)c1ccc(OCCOCC[N+](C)(C)CC(=O)[O-])cc1"
  Tested system: "OVCAR-8 ovarian"
  Label class: 0
- Chemical structure: "COc1cnc2c(c1)C(=O)c1c-2n(CCCNCCN2CCOCC2)c(=O)c2cc([N+](=O)[O-])ccc12"
  Tested system: "OVCAR-8 ovarian"
  Label class: 1
- Chemical structure: "C#CCn1c(C)cc(C)c(C#N)c1=O"
  Tested system: "OVCAR-8 ovarian"
  Label class: 0
- Chemical structure: "O=P(O)(c1ccccc1)c1ccccc1I"
  Tested system: "OVCAR-8 ovarian"
  Label class: 0
- Chemical structure: "COc1ccc(O)c(-c2cc(-c3ccc(Cl)cc3)c(C#N)c(=O)[nH]2)c1"
  Tested system: "OVCAR-8 ovarian"
  Label class: 0
- Chemical structure: "COC(=O)[C@]12CC[C@@H](C)[C@H](C)[C@@H]1C1=CC[C@@H]3[C@@]4(C)C(c5ncon5)=C[C@@](C)(CO)C4=CC[C@@]3(C)[C@]1(C)CC2"
  Tested system: "OVCAR-8 ovarian"
  Label class: 1
- Chemical structure: "O=C(N/N=C/c1ccccc1SSc1ccccc1/C=N/NC(=O)c1ccccc1)c1ccccc1"
  Tested system: "OVCAR-8 ovarian"
  Label class: 0
- Chemical structure: "O=S(=O)(NCCNc1cc(-c2cn(-c3ccccc3)nc2-c2cccc(O)c2)ccn1)c1ccc(F)cc1"
  Tested system: "OVCAR-8 ovarian"
  Label class: 0
- Chemical structure: "COc1ccc2[nH]c(-c3ccc(Cl)cc3)cc(=O)c2c1"
  Tested system: "OVCAR-8 ovarian"
  Label class: 0
